Test system: HOP-62
Assay: NCI one-dose SRB anti-proliferative screen
Format: cell-based
Conditions: Homo sapiens; HOP-62 (Non-Small Cell Lung Cancer), NCI one dose 10 µM; read-out: Cell growth inhibition %
measured parameter: inhibition at 10 µM (%)
Reply numerically in %, unit not repeated.

COc1ccc(/C=C/C(=O)c2ccc(NC(=O)CSc3nnc(-c4ccc5[nH]c(-c6ccc(Cl)cc6)nc5c4)o3)cc2)cc1 [Compound 7h] ... 0
COc1cc(-c2nc3cc(-c4nnc(SCC(=O)Nc5ccc(C(=O)/C=C/c6ccccc6)cc5)o4)ccc3[nH]2)cc(OC)c1OC [Compound 7u] ... 0

Now look at this one.
q: Entry COc1ccc(-c2nc3cc(-c4nnc(SCC(=O)Nc5ccc(C(=O)/C=C/c6ccccc6)cc5)o4)ccc3[nH]2)cc1OC [Compound 7p] : reported inhibition at 10 µM = ?
a: 0

* * *

Test system: SF-295
Assay: NCI one-dose SRB anti-proliferative screen
Type: cell-based
Conditions: Homo sapiens; SF-295, CNS Cancer; NCI one dose; read-out: Cell growth inhibition %
This section presents molecules with their documented inhibition at 10 µM values.
The reply should contain only the number, in %.

Reference set (6 entries):
COc1ccc(/C=C/C(=O)c2ccc(NC(=O)CSc3nnc(-c4ccc5[nH]c(-c6ccccc6)nc5c4)o3)cc2)cc1OC ... 0
COc1cc(/C=C/C(=O)c2ccc(NC(=O)CSc3nnc(-c4ccc5[nH]c(-c6ccccc6)nc5c4)o3)cc2)cc(OC)c1OC ... 0
O=C(CSc1nnc(-c2ccc3[nH]c(-c4ccccc4)nc3c2)o1)Nc1ccc(C(=O)/C=C/c2ccccc2)cc1 ... 0
COc1ccc(/C=C/C(=O)c2ccc(NC(=O)CSc3nnc(-c4ccc5[nH]c(-c6ccc(OC)cc6)nc5c4)o3)cc2)cc1 ... 2.1
COc1ccc(-c2nc3cc(-c4nnc(SCC(=O)Nc5ccc(C(=O)/C=C/c6cc(OC)c(OC)c(OC)c6)cc5)o4)ccc3[nH]2)cc1 ... 0
COc1ccc(-c2nc3cc(-c4nnc(SCC(=O)Nc5ccc(C(=O)/C=C/c6ccccc6)cc5)o4)ccc3[nH]2)cc1 ... 17.8

q: Value lookup for inhibition at 10 µM; key = COc1ccc(-c2nc3cc(-c4nnc(SCC(=O)Nc5ccc(C(=O)/C=C/c6ccc(OC)c(OC)c6)cc5)o4)ccc3[nH]2)cc1
a: 0

q: Fill in the blank: the reported inhibition at 10 µM of COc1ccc(/C=C/C(=O)c2ccc(NC(=O)CSc3nnc(-c4ccc5[nH]c(-c6ccccc6)nc5c4)o3)cc2)cc1 is ____.
a: 1.65

q: # input molecule: COc1ccc(-c2nc3cc(-c4nnc(SCC(=O)Nc5ccc(C(=O)/C=C/c6ccc(Cl)cc6)cc5)o4)ccc3[nH]2)cc1 ; wanted: its inhibition at 10 µM
a: 4.12

q: Using the record for O=C(CSc1nnc(-c2ccc3[nH]c(-c4ccccc4)nc3c2)o1)Nc1ccc(C(=O)/C=C/c2ccc(Cl)cc2)cc1 , report its inhibition at 10 µM.
a: 0

* * *

Tested on: A498
Test: NCI one-dose SRB anti-proliferative screen
Format: cell-based
Conditions: Homo sapiens; A498, Renal cancer; NCI one dose; read-out: Cell growth inhibition %
measured parameter: inhibition at 10 µM (%)
All answers are understood in %, so give the number only.

COc1ccc(/C=C/C(=O)c2ccc(NC(=O)CSc3nnc(-c4ccc5[nH]c(-c6ccccc6)nc5c4)o3)cc2)cc1OC [Compound 7d] ... 14.3
COc1ccc(-c2nc3cc(-c4nnc(SCC(=O)Nc5ccc(C(=O)/C=C/c6ccc(Cl)cc6)cc5)o4)ccc3[nH]2)cc1 [Compound 7l] ... 15.7

q: Reported inhibition at 10 µM for COc1ccc(-c2nc3cc(-c4nnc(SCC(=O)Nc5ccc(C(=O)/C=C/c6ccccc6)cc5)o4)ccc3[nH]2)cc1 [Compound 7k] : what is it?
a: 19.9

q: I'd like to know its inhibition at 10 µM. The compound in question is O=C(CSc1nnc(-c2ccc3[nH]c(-c4ccccc4)nc3c2)o1)Nc1ccc(C(=O)/C=C/c2ccc(Cl)cc2)cc1 [Compound 7b]
a: 6.84

q: Any idea what inhibition at 10 µM was measured for COc1ccc(-c2nc3cc(-c4nnc(SCC(=O)Nc5ccc(C(=O)/C=C/c6ccc(OC)c(OC)c6)cc5)o4)ccc3[nH]2)cc1 [Compound 7n] ?
a: 0

q: Look up inhibition at 10 µM: COc1ccc(/C=C/C(=O)c2ccc(NC(=O)CSc3nnc(-c4ccc5[nH]c(-c6ccccc6)nc5c4)o3)cc2)cc1 [Compound 7c]
a: 22.6

FYI, the data here is from paper PMC10504751.
